target: S1P1 (Homo sapiens, UniProt P21453); construct: expressed in transfected cells; host or cells: CHO cells (membranes); assay: 35S-GTPγS binding, S1P1 membranes; type: biochemical; conditions: membranes from CHO cells expressing S1P1; 60 min 30° C.
Sequence (P21453 whole entry, species assumed): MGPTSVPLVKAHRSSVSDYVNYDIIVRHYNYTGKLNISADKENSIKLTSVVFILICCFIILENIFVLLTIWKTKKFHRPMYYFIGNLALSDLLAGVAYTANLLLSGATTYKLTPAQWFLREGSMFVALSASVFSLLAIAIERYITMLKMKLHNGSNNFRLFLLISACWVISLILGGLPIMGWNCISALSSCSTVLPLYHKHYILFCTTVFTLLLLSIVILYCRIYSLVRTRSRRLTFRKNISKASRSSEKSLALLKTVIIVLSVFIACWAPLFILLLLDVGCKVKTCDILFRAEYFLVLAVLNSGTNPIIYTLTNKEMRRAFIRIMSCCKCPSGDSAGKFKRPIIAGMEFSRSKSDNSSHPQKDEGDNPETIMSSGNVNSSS
Each item that follows carries a reported log10 of EC50.
The base-10 logarithm of EC50, taken with EC50 in nM, is what appears here.

Observe how each entry below is paired with its result.
# molecule, log10 of EC50
measured = [
    ("O=C(O)c1ccc(-c2noc(-c3ccc(N4CCCCC4)c([N+](=O)[O-])c3)n2)cc1F", 3.71),
    ("COCc1cc(-c2nc(-c3ccc(C(=O)NC(C)(C)C(=O)OC)c(F)c3)no2)ccc1-c1ccccc1C", 2.19),
    ("COCc1cc(-c2nc(-c3ccc(C(=O)NCCC(=O)O)c(F)c3)no2)ccc1-c1ccccc1C", 0.86),
    ("COCc1cc(-c2nc(-c3ccc(C(=O)O)c(F)c3)no2)ccc1-c1cc(F)ccc1C", 1.53),
    ("COCc1cc(-c2nc(-c3cccc(C(=O)N(C)CC(=O)OC)c3)no2)ccc1-c1ccccc1C", 1.66),
    ("COCc1ccccc1-c1ccc(-c2nc(-c3ccc(C(=O)O)c(F)c3)no2)cc1COC", 2.75),
    ("CC(C)COc1ncc(-c2nc(-c3ccc(OCC(=O)O)c(F)c3)no2)cc1Cl", 3.11),
    ("COCc1cc(-c2nc(-c3ccc(OCCCC(=O)O)c(F)c3)no2)ccc1N1CCCCC1C (centres unmarked)", 0.20),
]

Lookup: I have this molecule here, COc1cc(-c2nc(-c3ccc(C(=O)O)c(F)c3)no2)ccc1-c1ccccc1C , and I need its recorded log10 of EC50.
Found: 2.53

Lookup: I have this molecule here, Cc1ccccc1-c1ccc(-c2nc(-c3ccc(C(=O)NCC(=O)O)c(F)c3)no2)cc1C , and I need its recorded log10 of EC50.
Found: 2.23

Lookup: I have this molecule here, COCc1cc(-c2nc(-c3cccc(C(=O)N(C)CC(=O)O)c3)no2)ccc1-c1ccccc1C , and I need its recorded log10 of EC50.
Found: 1.69

Lookup: I have this molecule here, COCc1cc(-c2nc(-c3cc(C(=O)O)ccc3OC)no2)ccc1-c1ccccc1C , and I need its recorded log10 of EC50.
Found: 2.12

Lookup: I have this molecule here, COCc1cc(-c2nc(-c3ccc(OCC(=O)O)c(F)c3)no2)ccc1-c1ccccc1C , and I need its recorded log10 of EC50.
Found: 1.15

Lookup: I have this molecule here, COCc1cc(-c2nc(-c3ccc(C(N)=O)cc3)no2)ccc1-c1ccccc1C , and I need its recorded log10 of EC50.
Found: 0.68

---

target: S1P1 (Homo sapiens, UniProt P21453); experiment: 35S-GTPγS binding, S1P1 membranes; conditions: membranes from CHO cells expressing S1P1; 60 min 30° C.
Each item that follows carries a reported log10 of EC50.
The base-10 logarithm of EC50, taken with EC50 in nM, is what appears here.

# compound, assayValue
rows = [
    ("CC1CCCCN1c1ccc(-c2nc(-c3ccc(C(=O)O)cc3F)no2)cc1C(F)(F)F (stereo not shown) [Example 27]", 3.04),
    ("Cc1cc(-c2nc(-c3ccc(O)c(C(=O)O)c3)no2)ccc1-c1cscc1C [Example 44]", 3.16),
    ("COCc1cc(-c2nc(-c3cccc(CCOCC(=O)O)c3)no2)ccc1-c1ccccc1C [Example 161]", 0.32),
]

// below: log10 of EC50 requested for another compound
Lookup: I have this compound here, CC1CCCCN1c1ccc(-c2nc(-c3ccc(OCC(=O)O)c(F)c3)no2)cc1C(F)(F)F (stereo not shown) [Example 47] , and I need its recorded log10 of EC50.
Found: 1.60

---

Each item that follows carries a reported EC50.
target: S1P1 (Homo sapiens, UniProt P21453); experiment: 35S-GTPγS binding, S1P1 membranes; settings: membranes from CHO cells expressing S1P1; 60 min 30° C.
Numbers only here, please. The scale is nM.

Observe how each entry below is paired with its result.
# compound, EC50 / nM
measured = [
    ("COCc1cc(-c2nc(-c3ccc(CO)cc3)no2)ccc1-c1ccccc1C [Example 191]", 2.1),
    ("COc1cc(-c2noc(-c3ccc(-c4ccccc4C)c(C)c3)n2)ccc1C(=O)O [Example 46]", 2270),
    ("CC1CCCCN1c1ccc(-c2nc(-c3ccc(S(N)(=O)=O)cc3)no2)cc1NS(C)(=O)=O (stereo not shown) [Example 37]", 1.6),
]

// below: EC50 requested for another compound
Lookup: I have this compound here, Cc1ccccc1-c1ccc(-c2nc(-c3ccc(S(N)(=O)=O)cc3)no2)cc1C [Example 40] , and I need its recorded EC50.
Found: 10

---

target: S1P1 (Homo sapiens, UniProt P21453); assay: 35S-GTPγS binding, S1P1 membranes; details: membranes from CHO cells expressing S1P1; 60 min 30° C.
Counter-ions that a name gives are not always drawn.
assayReadout: pEC50
Bear in mind: pEC50 is minus log10 of a mol/L concentration; give just that figure.

Observe how each entry below is paired with its result.
# molecule, experimentalTarget, pEC50
measured = [
    ("CC1CCCCN1c1ccc(-c2nc(-c3ccc(C(=O)O)c(F)c3)no2)cc1NS(=O)(=O)N(C)C (centres unmarked)", "S1P1 (Homo sapiens, UniProt P21453)", 6.91),
    ("COCc1cc(-c2nc(-c3ccc(OCC(=O)O)c(F)c3)no2)ccc1N1CCCCC1C (centres unmarked) [Example 169, hydrochloride salt]", "S1P1 (Homo sapiens, UniProt P21453)", 8.28),
    ("CC1CCCCN1c1ccc(-c2nc(-c3ccc(C(=O)O)c(F)c3)no2)cc1C(F)(F)F (centres unmarked)", "S1P1 (Homo sapiens, UniProt P21453)", 6.46),
    ("Cc1ccccc1-c1ccc(-c2nc(-c3ccc(C(=O)O)c(F)c3)no2)cc1S(C)(=O)=O", "S1P1 (Homo sapiens, UniProt P21453)", 5.40),
    ("COCc1cc(-c2nc(-c3cccc(CN(C)CC(=O)O)c3)no2)ccc1OC(C)C [Example 148, Hydrochloride salt]", "S1P1 (Homo sapiens, UniProt P21453)", 8.40),
    ("Cc1ccccc1-c1ccc(-c2nc(-c3ccc(C(=O)O)c(F)c3)no2)cc1[N+](=O)[O-]", "S1P1 (Homo sapiens, UniProt P21453)", 6.19),
]

Lookup: I have this molecule here, COCc1cc(-c2nc(-c3ccc(C(=O)N4CC(F)(F)C4)c(F)c3)no2)ccc1-c1ccccc1C , and I need its recorded pEC50.
Found: 6.89

Lookup: I have this molecule here, Cc1ccccc1-c1ccc(-c2nc(-c3ccc(C(=O)O)c(Cl)c3)no2)cc1CS(C)(=O)=O , and I need its recorded pEC50.
Found: 5.33

Lookup: I have this molecule here, COCc1cc(-c2nc(-c3cccc(C(=O)NCC(=O)O)c3)no2)ccc1-c1ccccc1C , and I need its recorded pEC50.
Found: 8.29

Lookup: I have this molecule here, COCc1cc(-c2nc(-c3ccc(C(=O)O)c(F)c3)no2)ccc1-c1ccc(F)cc1C , and I need its recorded pEC50.
Found: 6.29

Lookup: I have this molecule here, Cc1ccccc1-c1ccc(-c2nc(-c3ccc(C(=O)O)c(F)c3)no2)cc1OC(C)C , and I need its recorded pEC50.
Found: 6.63

---

molecular target: S1P1 (Homo sapiens); assay: 35S-GTPγS binding, S1P1 membranes; conditions: membranes from CHO cells expressing S1P1; 60 min 30° C.
Counter-ions that a name gives are not always drawn.
assayReadout: EC50 (nM)
Numbers only here, please. The scale is nM.

Observe how each entry below is paired with its result.
# molecule, experimentalTarget, EC50 / nM
measured = [
    ("COCCNCc1cccc(-c2noc(-c3ccc(-c4ccccc4C)c(COC)c3)n2)c1 [Example 188, Hydrochloride salt]", "S1P1 (Homo sapiens)", 4),
    ("Cc1ccccc1-c1ccc(-c2nc(-c3ccc(C(=O)O)c(F)c3)no2)cc1CO", "S1P1 (Homo sapiens)", 2930),
]

// below: EC50 requested for another molecule
Lookup: I have this molecule here, COCc1cc(-c2nc(-c3cccc(OCC(=O)O)c3)no2)ccc1-c1ccccc1C , and I need its recorded EC50.
Found: 22.4

---

molecular target: S1P1 (Homo sapiens, UniProt P21453); experiment: 35S-GTPγS binding, S1P1 membranes; details: membranes from CHO cells expressing S1P1; 60 min 30° C.
Structures can show the parent of a compound that is named as a salt.
Criterion: EC50 strictly under 100 nM. Met: 1. Not met: -1.

# compound, experimentalTarget, class
records = [
    ("COCc1cc(-c2nc(-c3ccc(C(=O)NCCCC(=O)OC)c(F)c3)no2)ccc1-c1ccccc1C", "S1P1 (Homo sapiens, UniProt P21453)", 1),
    ("Cc1ccccc1-c1ccc(-c2nc(-c3ccc(C(=O)O)c(Cl)c3)no2)cc1C", "S1P1 (Homo sapiens, UniProt P21453)", -1),
    ("COCc1cc(-c2nc(-c3ccc(C(=O)O)c(F)c3)no2)ccc1N1CCCCC1C (stereo not drawn)", "S1P1 (Homo sapiens, UniProt P21453)", 1),
    ("COCc1cc(-c2nc(-c3ccc(C(=O)O)c(F)c3)no2)ccc1-c1ccccc1F", "S1P1 (Homo sapiens, UniProt P21453)", -1),
    ("CCOC(=O)C1(NCc2cccc(-c3noc(-c4ccc(-c5ccccc5C)c(COC)c4)n3)c2)CC1", "S1P1 (Homo sapiens, UniProt P21453)", -1),
    ("Cc1cc(-c2nc(-c3ccc(C(=O)O)c(F)c3)no2)ccc1-c1c(C)noc1C", "S1P1 (Homo sapiens, UniProt P21453)", -1),
    ("Cc1cscc1-c1ccc(-c2nc(-c3ccc(C(=O)O)c(F)c3)no2)cc1C(F)(F)F", "S1P1 (Homo sapiens, UniProt P21453)", -1),
    ("COCc1cc(-c2nc(-c3cccc(CN(C)CC(=O)O)c3)no2)ccc1-c1ccccc1C [Example 141, Hydrochloride salt]", "S1P1 (Homo sapiens, UniProt P21453)", 1),
    ("COCC#Cc1cc(-c2nc(-c3ccc(C(=O)O)c(F)c3)no2)ccc1-c1ccccc1C", "S1P1 (Homo sapiens, UniProt P21453)", -1),
    ("COCc1cc(-c2nc(-c3cccc(C(=O)NCCCC(=O)OC)c3)no2)ccc1-c1ccccc1C", "S1P1 (Homo sapiens, UniProt P21453)", 1),
]

Lookup: Given COCc1cc(-c2nc(-c3ccc(C(=O)O)c(F)c3)no2)ccc1-c1ccccc1Cl , is recorded EC50 strictly lower than 100 nM?
Found: 1

Lookup: Given Cc1cc(-c2nc(-c3ccc(C(=O)O)c(F)c3)no2)ccc1N1CCOCC1 , is recorded EC50 strictly lower than 100 nM?
Found: -1

Lookup: Given COCc1cc(-c2nc(-c3cccc(COCC(=O)O)c3)no2)ccc1-c1ccccc1C , is recorded EC50 strictly lower than 100 nM?
Found: 1

Lookup: Given Cc1cc(-c2nc(-c3ccc(C(=O)O)c(F)c3)no2)ccc1-c1ccccc1O , is recorded EC50 strictly lower than 100 nM?
Found: -1

Lookup: Given COCc1cc(-c2nc(-c3ccc(F)c(CN(C)CCC(=O)O)c3)no2)ccc1-c1ccccc1C [Example 154, Hydrochloride salt] , is recorded EC50 strictly lower than 100 nM?
Found: 1
